# assay.summary: total protein half-life in vivo (active degradation + dilution); higher = more stable protein
# condition.context: E. coli NCM3722 delta-clpP delta-lon delta-hslV; growth: N-lim chemostat; doubling time 6 h
quantity.name: total protein half-life in vivo
Number first, unit second.

item.sequence: MSKLDLNALNELPKVDRILALAETNAELEKLDAEGRVAWALDNLPGEYVLSSSFGIQAAVSLHLVNQIRPDIPVILTDTGYLFPETYRFIDELTDKLKLNLKVYRATESAAWQEARYGKLWEQGVEGIEKYNDINKVEPMNRALKELNAQTWFAGLRREQSGSRANLPVLAIQRGVFKVLPIIDWDNRTIYQYLQKHGLKYHPLWDEGYLSVGDTHTTRKWEPGMAEEETRFFGLKRECGLHEG
total protein half-life in vivo: 4.38 h
//
item.sequence: MAIDENKQKALAAALGQIEKQFGKGSIMRLGEDRSMDVETISTGSLSLDIALGAGGLPMGRIVEIYGPESSGKTTLTLQVIAAAQREGKTCAFIDAEHALDPIYARKLGVDIDNLLCSQPDTGEQALEICDALARSGAVDVIVVDSVAALTPKAEIEGEIGDSHMGLAARMMSQAMRKLAGNLKQSNTLLIFINQIRMKIGVMFGNPETTTGGNALKFYASVRLDIRRIGAVKEGENVVGSETRVKVVKNKIAAPFKQAEFQILYGEGINFYGELVDLGVKEKLIEKAGAWYSYKGEKIGQGKANATAWLKDNPETAKEIEKKVRELLLSNPNSTPDFSVDDSEGVAETNEDF [P0A7G6]
total protein half-life in vivo: 6.6 h
//
item.sequence: MQNITQSWFVQGMIKATTDAWLKGWDERNGGNLTLRLDDADIAPYHDNFHQQPRYIPLSQPMPLLANTPFIVTGSGKFFRNVQLDPAANLGIVKVDSDGAGYHILWGLTNEAVPTSELPAHFLSHCERIKATNGKDRVIMHCHATNLIALTYVLENDTAVFTRQLWEGSTECLVVFPDGVGILPWMVPGTDEIGQATAQEMQKHSLVLWPFHGVFGSGPTLDETFGLIDTAEKSAQVLVKVYSMGGMKQTISREELIALGKRFGVTPLASALAL
total protein half-life in vivo: 3.93 h
//
item.sequence: MTTLTARPEAITFDPQQSALIVVDMQNAYATPGGYLDLAGFDVSTTRPVIANIQTAVTAARAAGMLIIWFQNGWDEQYVEAGGPGSPNFHKSNALKTMRKQPQLQGKLLAKGSWDYQLVDELVPQPGDIVLPKPRYSGFFNTPLDSILRSRGIRHLVFTGIATNVCVESTLRDGFFLEYFGVVLEDATHQAGPKFAQKAALFNIETFFGWVSDVETFCDALSPTSFAHIA
total protein half-life in vivo: 4.33 h
//
item.sequence: MFEYLPELMKGLHTSLTLTVASLIVALILALIFTIILTLKTPVLVWLVRGYITLFTGTPLLVQIFLIYYGPGQFPTLQEYPALWHLLSEPWLCALIALSLNSAAYTTQLFYGAIRAIPEGQWQSCSALGMSKKDTLAILLPYAFKRSLSSYSNEVVLVFKSTSLAYTITLMEVMGYSQLLYGRTYDVMVFGAAGIIYLVVNGLLTLMMRLIERKALAFERRN [P0AE30]
total protein half-life in vivo: 5.31 h
//
item.sequence: MENNEIQSVLMNALSLQEVHVSGDGSHFQVIAVGELFDGMSRVKKQQTVYGPLMEYIADNRIHAVSIKAYTPAEWARDRKLNGF [P0A9W6]
total protein half-life in vivo: 5.36 h
//
item.sequence: MAAVNLRHIEIFHAVMTAGSLTEAAHLLHTSQPTVSRELARFEKVIGLKLFERVRGRLHPTVQGLRLFEEVQRSWYGLDRIVSAAESLREFRQGELSIACLPVFSQSFLPQLLQPFLARYPDVSLNIVPQESPLLEEWLSAQRHDLGLTETLHTPAGTERTELLSLDEVCVLPPGHPLAVKKVLTPDDFQGENYISLSRTDSYRQLLDQLFTEHQVKRRMIVETHSAASVCAMVRAGVGISVVNPLTALDYAASGLVVRRFSIAVPFTVSLIRPLHRPSSALVQAFSGHLQAGLPKLVTSLDAILSSATTA
total protein half-life in vivo: 7.04 h
//
item.sequence: MVKTQRVVITPGEPAGIGPDLVVQLAQREWPVELVVCADATLLTNRAAMLGLPLTLRPYSPNSPAQPQTAGTLTLLPVALRAPVTAGQLAVENGHYVVETLARACDGCLNGEFAALITGPVHKGVINDAGIPFTGHTEFFEERSQAKKVVMMLATEELRVALATTHLPLRDIADAITPALLHEVIAILHHDLRTKFGIAEPRILVCGLNPHAGEGGHMGTEEIDTIIPVLNELRAQGMKLNGPLPADTLFQPKYLDNADAVLAMYHDQGLPVLKYQGFGRGVNITLGLPFIRTSVDHGTALELAGRGKADVGSFITALNLAIKMIVNTQ
total protein half-life in vivo: 4.27 h

Req: Looking for the measured total protein half-life in vivo of MFQLSVQDIHPGEKAGDKEEAIRQVAAALVQAGNVAEGYVNGMLAREQQTSTFLGNGIAIPHGTTDTRDQVLKTGVQVFQFPEGVTWGDGQVAYVAIGIAASSDEHLGLLRQLTHVLSDDSVAEQLKSATTAEELRALLMGEKQSEQLKLDNEMLTLDIVASDLLTLQALNAARLKEAGAVDATFVTKAINEQPLNLGQGIWLSDSAEGNLRSAIAVSRAANAFDVDGETAAMLVSVAMNDDQPIAVLKRLADLLLDNKADRLLKADAATLLALLTSDDAPTDDVLSAEFVVRNEHGLHARPGTMLVNTIKQFNSDITVTNLDGTGKPANGRSLMKVVALGVKKGHRLRFTAQGADAEQALKAIGDAIAAGLGEGA , can you help?
Resp: 6.23 h

Req: What value of measured total protein half-life in vivo is listed for MQIVMFDRQSIFIHGMKISLQQRIPGVSIQGASQADELWQKLESYPEALVMLDGDQDGEFCYWLLQKTVVQFPEVKVLITATDCNKRWLQEVIHFNVLAIVPRDSTVETFALAVNSAAMGMMFLPGDWRTTPEKDIKDLKSLSARQREILTMLAAGESNKEIGRALNISTGTVKAHLESLYRRLEVKNRTQAAMMLNISS ?
Resp: 4.46 h

Req: Quick one: total protein half-life in vivo for MKILLAALTSSFMLVGCTPRIEVAAPKEPITINMNVKIEHEIIIKADKDVEELLETRSDLF ?
Resp: 7.04 h

Req: For the sequence shown here, MTLLNISGLSHHYAHGGFNGKHQHQAVLNNVSLTLKSGETVALLGRSGCGKSTLARLLVGLESPAQGNISWRGEPLAKLNRAQRKAFRRDIQMVFQDSISAVNPRKTVREILREPMRHLLSLKKSEQLARASEMLKAVDLDDSVLDKRPPQLSGGQLQRVCLARALAVEPKLLILDEAVSNLDLVLQAGVIRLLKKLQQQFGTACLFITHDLRLVERFCQRVMVMDNGQIVETQVVGEKLTFSSDAGRVLQNAVLPAFPVRRRTTEKV , give the reported total protein half-life in vivo.
Resp: 6.58 h

src = the supplement of paper PMC11246515
